// data source = patent US20060234909A1

Tested on: HT-29 colorectal carcinoma
method.notes: Cytotoxicity assay (monolayer), HT-29;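 also: monolayer cultures tested in triplicate, compound exposure for three days against DMSO vehicle controls, EC50 fitted from dose-response curves and averaged across all tests and lots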
Assay type: cell-based
test.settings: HT29, ML (monolayer); read-out: HT29 (EC50 Ave) ML
Exercise: state measured EC50 for each of the compounds provided.

Some compounds with known EC50 results, for comparison:
CC[C@]1(O)C[C@@H]2CN(CCc3c([nH]c4ccccc34)[C@@](C(=O)OC)(c3cc4c(cc3OC)N(C)[C@H]3[C@@](O)(C(=O)NCCCCCCNC(=O)OC(C)(C)C)[C@H](O)[C@]5(CC)C=CCN6CC[C@]43[C@@H]65)C2)C1; < 20 nM
CC(=O)O[C@H]1C(=O)[C@]2(C)[C@@H](OC(=O)CCCCCN)C[C@H]3OC[C@@]3(OC(C)=O)[C@H]2[C@H](OC(=O)c2ccccc2)[C@]2(O)C[C@H](OC(=O)[C@H](O)[C@@H](NC(=O)c3ccccc3)c3ccccc3)C(C)=C1C2(C)C; 100 to 1000 nM

Shift focus to the following entry.
Requested field: EC50. Item: `CC[C@H](C)[C@H](NC(=O)[C@H](Cc1ccc(O)cc1)NC(=O)OCc1ccccc1)C(=O)N[C@@H](Cc1ccc(O)cc1)C(=O)NCC(=O)N[C@@H](CO)C(=O)N[C@@H](Cc1ccccc1)C(=O)N[C@@H](CCCCN)C(=O)NCCOCCOCCOCCNC(=O)[C@@]1(O)[C@H](O)[C@]2(CC)C=CCN3CC[C@@]4(c5cc([C@@]6(C(=O)OC)C[C@@H]7CN(CCc8c6[nH]c6ccccc86)C[C@](O)(CC)C7)c(OC)cc5N(C)[C@@H]14)[C@@H]32`
> 100 nM

----------
Tested on: MCF-7 breast carcinoma
method.notes: Cytotoxicity assay (monolayer), MCF-7
Type: cell-based
test.settings: MCF7, ML (monolayer); read-out: MCF7 (EC50 Ave) ML
pEC50: −log10 of the molar value. Primed or numbered codes have the meaning given here. * marks the point of attachment. 10Ca = carbamate linkage conjugating the peptide-PEG to paclitaxel at C10; ALK(6) = not defined here; PEG(13)″ = PEG(13) linker; PEG(29) = PEG(29) linker; 10Es = not defined here; 3Am = not defined here; Cbz = O=C(OCc1ccccc1)*; Piv = CC(C)(C)C(=O)*; OBn = c1ccc(CO*)cc1; VBL = vinblastine; PXL = paclitaxel
Exercise: state measured pEC50 for each of the substances provided.

For the 7 substances below, give their pEC50 values.
1. CBz-YIFGSFK-PEG(11)-3Am-VBL (N-CBz; PEG(11) linker; vinblastine conjugate)
2. Ac-EYIYGSFR-PEG(11)-3Am-VBL (N-acetyl, PEG11, vinblastine conjugate)
3. H-YIYGSFK-PEG(29)-3Am-VBL x 2TFA (H-YIYGSFK-{PEG(29)-3Am-VBL}; reading uncertain; also: 2TFA salt)
4. Pv-E(Bzl)YIYGSFK(CBz)-PEG(13)-10Ca-PXL (Piv-E(OBn)YIYGSFK(Cbz)-{PEG(13)″-10Ca-PXL}; also: TFA salt)
5. CBz-E(Bzl)YIFGSFK(BOC)-PEG(11)-3Am-VBL
6. H-YIYGSFK-ALK(6)-10Es-PXL (H-YIYGSFK-{ALK(6)-10Es-PXL}; reading uncertain)
7. Ac-RPRTSSF-PEG(13)-10Ca-PXL (N-acetyl; PEG(13) linker; paclitaxel conjugate)

["< 7.00", "< 7.00", "> 7.70", "< 7.00", "> 7.70", "< 7.00", "< 7.00"]
